Provenance of the data: ChEMBL document CHEMBL4513216

Experimental Protocol: Toxicity liver stage against HepG2, at 10uM
Assay type: cell-based
Parameters: test concentration 10 uM, cell line HepG2-A16-CD81EGFP
Measurement Context: human, HepG2-A16-CD81EGFP cells; read-out: INHIBITION
Endpoint Label: cytotoxicity at 10 µM (%)
Dear colleague, please return just the value in %, with no unit written.

Ask | // query cytotoxicity at 10 µM value for entry COc1ccc2nc(C[C@@H]3C[C@@H](C(C)C)[C@H](CN)C=C3C)[nH]c2n1
Reply | 3.38

Ask | Record: CCCc1n[nH]c(C2CN(CCCS(=O)(=O)N(C)C)CCO2)n1 (centres undefined)
Reply | -11.9

Ask | Same question, O=C(Cc1ccccc1F)N1C[C@@H]2COC[C@]2(COc2cccnc2)C1 this time
Reply | 9.29

Ask | Follow-up entry: Cc1nn(C)c(N(C)C)c1CNCc1cccc(OCCN(C)C)c1
Reply | 1.38

Ask | Next molecule up: CC(=O)NCCCc1ncnn1-c1cccc(Cl)c1
Reply | 0.254

Ask | Next: N#Cc1ccc(C(=O)N2CCOC[C@H](Oc3cnccn3)C2)cc1
Reply | 5.88

Ask | Similarly, O=C(NC1(c2cccc(F)c2)CCOCC1)c1ccccn1 ?
Reply | -12.3

Ask | Cc1cnc(N2CCC3(CC2)CC3CN(C)Cc2cccnc2)nc1 (centres undefined) ?
Reply | -0.37

Ask | And for CCC(C)NC(=O)c1cc(S(N)(=O)=O)c(Br)s1 (centres undefined) ?
Reply | -4.38

Ask | And the next one, COC(=O)c1ccc(CN(C)C(=O)c2cnsn2)cc1 ?
Reply | 9.59

Ask | Please give the result for Cc1c(Br)cccc1CSc1nnc(CO)n1C too.
Reply | -40.5

Ask | Another: Cc1n[nH]c(C2CN(CC(=O)NCc3ccco3)CCO2)n1 (centres undefined)
Reply | 23

Ask | Also Cc1cc(C)c2nc(CN3CCC(N4CCOCC4)CC3)cc(O)c2c1 , if possible.
Reply | -0.173

Ask | Repeat with CCOC(=O)NC(CNC(=O)c1cccnc1SC)CC(C)C (centres undefined)
Reply | 6.68

Ask | Another molecule to look at: COc1ccnc(NCC2CN(C3CC3)CCO2)n1 (centres undefined)
Reply | -7.97

Ask | Follow-up entry: Cn1cc(CN2CCC(c3ccncc3)CC2)cn1
Reply | 0.26

Ask | Same question, Cc1nnc(CN2C[C@H](NC(=O)CC3CCCC3)[C@@H](C3CC3)C2)s1 this time
Reply | -42.4

Ask | How about C[C@@H](NC(=O)c1cnccn1)c1c(-c2ccc(F)cc2)noc1C(=O)O ?
Reply | 1.02

Ask | Follow-up entry: Cc1cc(NC(=O)N2CCCC2C(C)(C)O)c2ncccc2c1 (centres undefined)
Reply | 6.87

Ask | Now give it for Cc1ccc(C)c(SCC(=O)Nc2cccc(C(=O)N(C)C)n2)c1 too.
Reply | -9.9

Ask | Would you mind doing Cc1nc(CC(=O)N2CCN(C(C)c3ccccc3F)CC2)cs1 (centres undefined) as well?
Reply | 2.58

Ask | Record: Cc1nc(C)n(CC2CCCN(Cc3nc(C)c(C)o3)C2)n1 (centres undefined)
Reply | -2.68

Ask | Now this one: CC1(C(=O)Nc2ccc(F)c(-n3cccc3)c2)CCOCC1
Reply | -0.0972

Ask | Repeat with O=C(CN1CCNC1=O)NCc1ccc2sccc2c1
Reply | 5.05
